# TEST_SYSTEM: UniProt O35491
# Sequence (O35491 whole entry): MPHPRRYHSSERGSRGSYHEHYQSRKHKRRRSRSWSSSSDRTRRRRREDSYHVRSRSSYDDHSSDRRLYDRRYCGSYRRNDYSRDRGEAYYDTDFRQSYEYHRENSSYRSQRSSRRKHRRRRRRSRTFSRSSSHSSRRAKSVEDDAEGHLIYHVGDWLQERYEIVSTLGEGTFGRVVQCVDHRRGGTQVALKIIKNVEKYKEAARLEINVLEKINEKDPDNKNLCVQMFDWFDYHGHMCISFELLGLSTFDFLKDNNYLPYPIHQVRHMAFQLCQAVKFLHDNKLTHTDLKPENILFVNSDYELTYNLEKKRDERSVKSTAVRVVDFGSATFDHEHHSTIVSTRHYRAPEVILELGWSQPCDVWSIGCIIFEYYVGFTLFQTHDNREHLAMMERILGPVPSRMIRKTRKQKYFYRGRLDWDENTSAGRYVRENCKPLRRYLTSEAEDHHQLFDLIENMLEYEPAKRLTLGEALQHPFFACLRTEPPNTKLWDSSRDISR
Measured IC50 by item
MEASURED_PARAMETER: IC50 (nM)

molecule="Cc1ccc(-n2cc(COc3cccc4cnc(Nc5cccc(-c6cccc(C(=O)O)c6)c5)nc34)nn2)c([N+](=O)[O-])c1 [Compound 13a]" test_system="UniProt O35491" endpoint_result=278
molecule="Cc1ccc(-n2cc(COc3cccc4cnc(Nc5cccc(-c6ccc(C(=O)O)cc6)c5)nc34)nn2)c([N+](=O)[O-])c1 [Compound 10a]" test_system="UniProt O35491" endpoint_result=844
molecule="Cc1ccc(-n2cc(COc3cccc4cnc(Nc5cc(Cl)cc(-c6ccc(C(=O)O)cc6)c5)nc34)nn2)c([N+](=O)[O-])c1 [Compound 10b]" test_system="UniProt O35491" endpoint_result=118
molecule="Cc1ccc(-n2cc(COc3cccc4cnc(Nc5cc(Cl)cc(-c6cccc(C(=O)O)c6)c5)nc34)nn2)c([N+](=O)[O-])c1 [Compound 13b]" test_system="UniProt O35491" endpoint_result=61

---

# TEST_SYSTEM: Mm_CLK4 (Mus musculus, UniProt O35493)
# Sequence (O35493 whole entry): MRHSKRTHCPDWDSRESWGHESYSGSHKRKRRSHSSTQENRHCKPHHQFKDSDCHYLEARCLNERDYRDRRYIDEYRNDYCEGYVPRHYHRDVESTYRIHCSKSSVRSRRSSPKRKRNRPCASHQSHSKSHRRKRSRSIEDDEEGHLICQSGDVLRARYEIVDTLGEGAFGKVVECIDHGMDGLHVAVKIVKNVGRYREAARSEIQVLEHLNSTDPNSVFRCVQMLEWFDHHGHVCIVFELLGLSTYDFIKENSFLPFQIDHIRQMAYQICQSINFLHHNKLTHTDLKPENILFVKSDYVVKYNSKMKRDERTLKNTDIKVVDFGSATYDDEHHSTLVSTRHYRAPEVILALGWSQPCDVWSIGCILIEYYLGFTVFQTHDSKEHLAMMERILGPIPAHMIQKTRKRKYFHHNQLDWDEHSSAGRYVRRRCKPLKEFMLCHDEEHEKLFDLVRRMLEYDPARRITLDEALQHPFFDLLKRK
# ASSAY_REMARKS: radiometric γ33P-ATP kinase assay (Eurofins)
# Type: biochemical
# COND: ratio of IC50 values
Listed next: entries and their corresponding Mm_CLK3/Mm_CLK4.
MEASURED_PARAMETER: Mm_CLK3/Mm_CLK4

compound="Cc1ccc(-n2cc(COc3cccc4cnc(Nc5cc(Cl)cc(-c6cccc(C(=O)O)c6)c5)nc34)nn2)c([N+](=O)[O-])c1 [Compound 13b]" measured_parameter=Mm_CLK3/Mm_CLK4 endpoint_result=4.89
compound="Cc1ccc(-n2cc(COc3cccc4cnc(Nc5cccc(-c6ccc(C(=O)O)cc6)c5)nc34)nn2)c([N+](=O)[O-])c1 [Compound 10a]" measured_parameter=Mm_CLK3/Mm_CLK4 endpoint_result=4.90
compound="Cc1ccc(-n2cc(COc3cccc4cnc(Nc5cccc(-c6cccc(C(=O)O)c6)c5)nc34)nn2)c([N+](=O)[O-])c1 [Compound 13a]" measured_parameter=Mm_CLK3/Mm_CLK4 endpoint_result=3.87
compound="Cc1ccc(-n2cc(COc3cccc4cnc(Nc5cc(Cl)cc(-c6ccc(C(=O)O)cc6)c5)nc34)nn2)c([N+](=O)[O-])c1 [Compound 10b]" measured_parameter=Mm_CLK3/Mm_CLK4 endpoint_result=5.94

---

In this section, each of the compounds is paired with its reported remaining activity at 10 µM.
# TEST_SYSTEM: Hs_CDK9/CyclinT (Homo sapiens, UniProt P50750)
# Sequence (P50750 whole entry): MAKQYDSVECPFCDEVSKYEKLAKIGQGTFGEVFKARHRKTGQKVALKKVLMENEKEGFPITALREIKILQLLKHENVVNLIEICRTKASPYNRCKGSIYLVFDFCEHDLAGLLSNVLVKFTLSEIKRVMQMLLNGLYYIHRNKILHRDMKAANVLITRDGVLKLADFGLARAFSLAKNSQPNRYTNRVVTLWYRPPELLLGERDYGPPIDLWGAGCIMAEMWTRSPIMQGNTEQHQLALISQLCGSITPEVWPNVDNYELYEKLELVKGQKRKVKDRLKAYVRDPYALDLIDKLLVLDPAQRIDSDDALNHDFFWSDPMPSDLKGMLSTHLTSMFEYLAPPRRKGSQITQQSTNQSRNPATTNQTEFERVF
# Sequence (O60563 whole entry partner): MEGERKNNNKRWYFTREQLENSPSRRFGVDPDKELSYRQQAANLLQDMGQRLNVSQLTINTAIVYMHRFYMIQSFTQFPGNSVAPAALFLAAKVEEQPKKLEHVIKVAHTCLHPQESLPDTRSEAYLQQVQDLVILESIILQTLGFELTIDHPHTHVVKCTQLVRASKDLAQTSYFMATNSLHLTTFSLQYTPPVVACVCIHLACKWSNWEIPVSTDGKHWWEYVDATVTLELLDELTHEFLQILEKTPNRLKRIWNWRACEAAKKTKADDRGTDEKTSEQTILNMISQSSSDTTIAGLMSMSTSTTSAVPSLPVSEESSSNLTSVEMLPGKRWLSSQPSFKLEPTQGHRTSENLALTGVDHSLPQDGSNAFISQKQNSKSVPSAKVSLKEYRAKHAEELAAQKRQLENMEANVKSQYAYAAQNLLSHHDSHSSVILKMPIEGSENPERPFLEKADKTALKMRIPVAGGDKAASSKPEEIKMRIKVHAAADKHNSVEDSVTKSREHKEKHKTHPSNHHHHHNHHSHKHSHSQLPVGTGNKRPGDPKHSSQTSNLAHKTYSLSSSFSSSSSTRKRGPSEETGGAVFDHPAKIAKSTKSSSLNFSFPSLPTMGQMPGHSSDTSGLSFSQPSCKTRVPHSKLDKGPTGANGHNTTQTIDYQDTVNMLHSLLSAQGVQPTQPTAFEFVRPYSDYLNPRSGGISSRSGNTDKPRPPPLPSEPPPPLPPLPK
# ASSAY_REMARKS: primary screening, short panel of mammalian kinases
# Assay type: biochemical
# COND: compound 10 μM; ATP 10 µM; means, n = 2; read-out: Residual kinase activity Hs_CDK9/CyclinT
MEASURED_PARAMETER: remaining activity at 10 µM (%)

compound="Cc1ccc(-n2cc(COc3cccc4cnc(Nc5cc(Cl)cc(-c6ccc(C(=O)O)cc6)c5)nc34)nn2)c([N+](=O)[O-])c1 [Compound 10b]" measure_unit=% endpoint_result=66
compound=COC(=O)c1ccc(-c2cc(Cl)cc(Nc3ncc4cccc(OCc5cn(-c6ccc(C)cc6[N+](=O)[O-])nn5)c4n3)c2)cc1 measure_unit=% endpoint_result=91
compound="Cc1ccc(-n2cc(COc3cccc4cnc(Nc5cccc(-c6cccc(C(=O)O)c6)c5)nc34)nn2)c([N+](=O)[O-])c1 [Compound 13a]" measure_unit=% endpoint_result=24
compound=COC(=O)c1ccc(-c2cccc(Nc3ncc4cccc(OCc5cn(-c6ccc(C)cc6[N+](=O)[O-])nn5)c4n3)c2)cc1 measure_unit=% endpoint_result=95
compound="COC(=O)c1cccc(-c2cc(Cl)cc(Nc3ncc4cccc(OCc5cn(-c6ccc(C)cc6[N+](=O)[O-])nn5)c4n3)c2)c1 [Compound 12b]" measure_unit=% endpoint_result=83
compound="Cc1ccc(-n2cc(COc3cccc4cnc(Nc5cc(Cl)cc(-c6cccc(C(=O)O)c6)c5)nc34)nn2)c([N+](=O)[O-])c1 [Compound 13b]" measure_unit=% endpoint_result=47
compound="Cc1ccc(-n2cc(COc3cccc4cnc(Nc5cccc(-c6ccc(C(=O)O)cc6)c5)nc34)nn2)c([N+](=O)[O-])c1 [Compound 10a]" measure_unit=% endpoint_result=38
